Can you tell me activity change, negative = inhibition for the items I'm about to list?
- testName: Toxoplasma gondii ME49Luc growth in HeLa cells, luciferase, no IFN-y, primary screen (AID 1259421)
- conditionsUsed: T. gondii ME49Luc in HeLa, 72 h, stronger effect = lower value, concentration not given here
The whole screen tested about 6,400 compounds, of which about 610 (9.5%) were called active. Only a selection was taken, and actives are over-represented in it overall.
All answers are understood in %, so give the number only.

# activity change, negative = inhibition (compound: "CC(=O)[O][Hg][c]1ccccc1" ) is -50.7

# activity change, negative = inhibition (compound: Oc1ccc2c3c1OC1c4c(c5ccccc5n4Cc4ccccc4)CC4(O)C(C2)N(CC2CC2)CCC314 (stereo unspecified) ) is -1.02

# activity change, negative = inhibition (compound: FC(F)OC(F)(F)C(F)Cl (stereo unspecified) ) is 2.39

# activity change, negative = inhibition (compound: "NC(=O)CN1C[C@H](O)CC1=O" ) is -40.7

# activity change, negative = inhibition (compound: CN1[C@@H]2CC[C@H]1CC(OC1c3ccccc3CCc3ccccc31)C2 (stereo partly specified) ) is 15.8

# activity change, negative = inhibition (compound: C=C1CC2C(CC[C@]3(C)C(=O)CCC23)[C@@]2(C)C=CC(=O)C=C12 (stereo partly specified) ) is 11.4

###

- testName: Toxoplasma gondii ME49Luc growth in HeLa cells, luciferase, no IFN-y, primary screen (AID 1259421)
- conditionsUsed: T. gondii ME49Luc in HeLa, 72 h, concentration not given here
Among all 6,400 compounds or so, about 610 (9.5%) were called active. Cut-off read from the data, not from the text of the source: active = activity change below about -70%; inconclusive = no clear call, values can overlap the other calls; inactive = above that. Only a selection was taken, and actives are over-represented in it overall.
Field 'call' accepts active, inactive

Query: Please indicate how the test categorized "O=C1NC(=S)NC(=O)C1C(=O)Nc1ccccc1" .
Result: inactive

Query: Please indicate how the test categorized CC1OC(OC2CC(O)C3(CO)C4C(O)CC5(C)C(C6=CC(=O)OC6)CCC5(O)C4CCC3(O)C2)C(O)C(O)C1O (centres undefined) .
Result: active

Query: Please indicate how the test categorized CN1CC2CCCC(C1)C2OC(=O)C(O)(c1ccccc1)C1CCCC1 (centres undefined) .
Result: inactive

Query: Please indicate how the test categorized "O=C(O)COc1ccc(Cl)cc1Cl" .
Result: inactive

Query: Please indicate how the test categorized "c1ccc2c(c1)sc1ccccc12" .
Result: inactive

Query: Please indicate how the test categorized O=C1Nc2ccc(Cl)cc2C(c2ccccc2)=NC1O (centres undefined) .
Result: inactive

Query: Please indicate how the test categorized CN1CCc2cc3c(cc2C1[C@@H]1OC(=O)c2c1ccc1c2OCO1)OCO3 (some centres undefined) .
Result: inactive

Query: Please indicate how the test categorized "O=C(O)CCCCCCNC1c2ccccc2CCc2ccccc21" .
Result: inactive

Query: Please indicate how the test categorized "O=C(O)CCCOc1ccc(Cl)cc1Cl" .
Result: inactive

###

Can you tell me activity change, negative = inhibition for the items I'm about to list?
- testName: Toxoplasma gondii ME49Luc growth in HeLa cells, luciferase, no IFN-y, primary screen (AID 1259421)
- conditionsUsed: T. gondii ME49Luc in HeLa, 72 h, stronger effect = lower value, concentration not given here
The campaign covered roughly 6,400 compounds. About 610 (9.5%) were called active. This excerpt belongs to a sample that is enriched for actives.
All answers are understood in %, so give the number only.

# activity change, negative = inhibition (molecule: CC1CC(C)C(=O)C(C(O)CC2CC(=O)NC(=O)C2)C1 (configuration not stated) ) is -83.8

# activity change, negative = inhibition (molecule: "CN1CC[C@@H]2CN3CCc4cccc(c43)[C@@H]2C1" ) is 3.72

# activity change, negative = inhibition (molecule: "CC(=O)OC[C@]12CCC(C)=C[C@H]1O[C@@H]1[C@H](O)[C@@H](OC(C)=O)[C@@]2(C)[C@@]12CO2" ) is -82.7

# activity change, negative = inhibition (molecule: C=C1CCC2(O)C3Cc4ccc(O)c5c4C2(CCN3CC2CC2)C1O5 (configuration not stated) ) is 12.3

# activity change, negative = inhibition (molecule: "C[C@]12CC[C@H](O)C[C@@H]1CC[C@@H]1[C@H]2CC[C@]2(C)C(=O)CC[C@@H]12" ) is 6.71

# activity change, negative = inhibition (molecule: CSCCC(NC(=O)C(Cc1ccccc1)NC(=O)CNC(=O)CNC(=O)C(N)Cc1ccc(O)cc1)C(=O)O (configuration not stated) ) is 10.2

# activity change, negative = inhibition (molecule: "C[C@H](N)Cn1ccc2cc(F)c(Cl)cc21" ) is 7.22
